Values from patent US10343991B2

Test system: THP1 cells
Type: cell-based, human
Settings: THP-1 cells, 10 μM, 24 h; untreated cells 68.3%
Method: To understand the anticancer activity mechanism of the synthesized oxindole derivatives, we analysed the cell cycle alteration phase distribution of the cells by treating THP1 cells with oxindole derivatives at 10 μM, for 24 h and analyzed by flow cytometry. […] The THP1 cells were treated with the active compounds at […] and incubated for about 24 h. […] The DNA content was measured by flow cytometry (BD FACS C anto II). Results were analysed using FCS express 4 plus software.
READOUT: accumulation of cells in the G0/G1 phase (%)
Enter your answer as a number in %; do not include the unit.

{"COMPOUND": "CN(C)c1ccc(/C=C2\\C(=O)Nc3cc(O)c(C(C#Cc4ccccc4)c4ccccc4)cc32)c2ccccc12 (stereo not drawn)", "TARGET OF ASSAY": "THP1 cells", "accumulation of cells in the G0/G1 phase, %": 96.7}
{"COMPOUND": "CN(C)c1ccc(/C=C2\\C(=O)Nc3cc4oc(Cc5ccccc5)c(-c5ccccc5)c4cc32)c2ccccc12", "TARGET OF ASSAY": "THP1 cells", "accumulation of cells in the G0/G1 phase, %": 93.5}

// next entry
Qu. Consider the compound Cc1ccsc1/C=C1\C(=O)Nc2cc3oc(Cc4ccccc4)c(-c4ccccc4)c3cc21 and give its measured accumulation of cells in the G0/G1 phase.
Ans. 83
